Where these numbers come from: patent EP0029617A1

The following compounds are shown together with reported Wirksamkeit in % Substanz allein values.
Test system: Kornkäfer (sitophilus granarius L)
Test: whole plant or invertebrate
Assay type: in vivo
Details: amine 1 mg/ml in Aceton mixed 1 : 1 with Aceton, 2 ml per dish; 25 weevils, dead counted after 3 h
Procedure: Test von tertiären, heterocyclischen Aminen allein und im Gemisch mit Pyrethroiden an Kornkäfern (sitophilus granarius L) In Petrischalen mit 15 cm Durchmesser mit talcumbepuderten Seitenwänden, um das Entfliehen der Kornkäfer zu verhindern, wurden jeweils 2 ml der Acetonlösungen einpipettiert und durch vorsichtiges Schwenken der Schalen gleichmäßig auf dem Boden verteilt. Nach dem Abdampfen des Acetons und dem Antrocknen der Beläge wurden in jede Schale 25 Kornkäfer eingezählt. […]

{"columns": ["compound", "unit-spec", "Wirksamkeit in % Substanz allein"],
 "data": [
  ["C(CCCN1CCCC1)CCN1CCCC1", "%", 0],
  ["CC(C)=CCC/C(C)=C\\CN1CCCCC1", "%", 0],
  ["CCCCOC(CN1CCCCC1)OCCCC", "%", 0],
  ["C(CCCCCN1CCCC1)CCCCN1CCCC1", "%", 0],
  ["O=C(OCc1ccccc1)C(c1ccccc1)N1CCCCC1 (stereo not shown)", "%", 0],
  ["C=CC(C)(CCC=C(C)CCC=C(C)C)N1CCCC1 (stereo not shown)", "%", 0],
  ["c1ccc(C(N2CCCCC2)N2CCCCC2)cc1", "%", 0],
  ["C(CCCCCN1CCCCC1)CCCCN1CCCCC1", "%", 0],
  ["Clc1ccc(CN2CCCC2)cc1", "%", 0],
  ["c1ccc(CCN2CCOCC2)cc1", "%", 0]
]}

---

test system: Kornkäfer (sitophilus granarius L); assay: whole plant or invertebrate; format: in vivo; details: amine 1 mg/ml mixed 1 : 1 with Ripcord 0,01 mg/ml; 3 h
observed-property: Wirksamkeit in % Substanz +Ripcord

{"columns": ["compound-smiles", "target-system", "result"],
 "data": [
  ["CCCCCCCCN1CCCCC1", "Kornkäfer (sitophilus granarius L)", "54,8%"],
  ["c1ccc(CN2CCCCC2)cc1", "Kornkäfer (sitophilus granarius L)", "94,8%"],
  ["C(CCCCCN1CCCCC1)CCCCN1CCCCC1", "Kornkäfer (sitophilus granarius L)", "76,0%"],
  ["CCCCCCCCCCN1CCOCC1", "Kornkäfer (sitophilus granarius L)", "73,1%"],
  ["C(CCCCN1CCOCC1)CCCN1CCOCC1", "Kornkäfer (sitophilus granarius L)", "93,2%"],
  ["CCCCCCCCCCCCCCN1CCOCC1", "Kornkäfer (sitophilus granarius L)", "64,0%"],
  ["Oc1cc(CN2CCCCC2)c(O)cc1CN1CCCCC1", "Kornkäfer (sitophilus granarius L)", "56,0%"],
  ["c1cc2c(cc1CN1CCCCCC1)OCO2", "Kornkäfer (sitophilus granarius L)", "96,0%"],
  ["CCCCCCCCCCCCN1CC1", "Kornkäfer (sitophilus granarius L)", "90,0%"],
  ["CCCCOC(CN1CCCCC1)OCCCC", "Kornkäfer (sitophilus granarius L)", "86,8%"]
]}

---

system: Kornkäfer (sitophilus granarius L); assay: whole plant or invertebrate; type: in vivo; settings: amine 1 mg/ml + Talcord 0,01 mg/ml
observed-property: Synergistischer Faktor bei Talcord

{"columns": ["molecule", "observed-property", "result"],
 "data": [
  ["CCCCCCCCN1CCCCC1", "Synergistischer Faktor bei Talcord", "1,24"],
  ["CN(C)C(=O)N1CCCCC1", "Synergistischer Faktor bei Talcord", "6,60"],
  ["CCOC(=O)C(c1ccccc1)N1CCCC1 (centres unmarked)", "Synergistischer Faktor bei Talcord", "2,60"],
  ["CCC/C=C(\\CC)CN1CCCC1 [cis-3-N-pyrrolidino-methyl-hepten-(3)]", "Synergistischer Faktor bei Talcord", "1,65"],
  ["c1ccc(OCCN2CCCCC2)cc1", "Synergistischer Faktor bei Talcord", "6,60"],
  ["OCCN1CCOCC1", "Synergistischer Faktor bei Talcord", "4,0"],
  ["C(=Cc1ccccc1)CN1CCCCC1", "Synergistischer Faktor bei Talcord", "7,01"],
  ["CCCCCCCCCN1CCCCCC1", "Synergistischer Faktor bei Talcord", "4,54"],
  ["CCCCCCCCCCN1CCCC1", "Synergistischer Faktor bei Talcord", "1,90"],
  ["C=CC(C)(CCC=C(C)C)N1CCOCC1 (centres unmarked)", "Synergistischer Faktor bei Talcord", "3,42"],
  ["CN(C)C(=O)N1CCCCCC1", "Synergistischer Faktor bei Talcord", "5,48"]
]}
